System: S. aureus A798
Experimental details: Bacterial growth minimal inhibitory concentration (microdilution, cation-adjusted Mueller-Hinton Broth)
Assay type: cell-based, Staphylococcus aureus
Setup conditions: Staphylococcus aureus, A798; multiply-resistant strain (methicillin- and quinolone-resistant)
Would you mind telling me the reported MIC of each entry?

[ask] Record `CN1CC(Oc2cccc(-c3cccc(CNCC[C@H]4CN(c5ccc6c(n5)NC(=O)CO6)C(=O)O4)c3)n2)C1` : what is its MIC with S. aureus A798?
[reply] 0.25 µg/mL

[ask] Record `O=C1COc2ccc(N3C[C@H](CCNCc4cccc(-c5cccc(OCCN6CCCCC6)c5)c4)OC3=O)nc2N1` : what is its MIC with S. aureus A798?
[reply] 0.5 µg/mL

[ask] Record `C[C@@H](N)COc1cccc(-c2cccc(CNCC[C@H]3CN(c4ccc5c(n4)NC(=O)CO5)C(=O)O3)c2)n1` : what is its MIC with S. aureus A798?
[reply] 0.5 µg/mL

[ask] Record `C[C@H]1C[C@H](Oc2cccc(-c3cccc(CNCC[C@H]4CN(c5ccc6c(n5)NC(=O)CO6)C(=O)O4)c3)n2)CN1` : what is its MIC with S. aureus A798?
[reply] 0.25 µg/mL
